Examples of compounds with documented remaining at 72 h, 500 μM follow.
# System: MMP-9
# METHOD_DESCRIPTION: Digestion of peptides by MMP-9
# Format: in vitro ADME
# DETAILS: MMP-9 (10 U) in Tris-HCl buffer, pH 7.5
Where a SMILES comes first, the peptide text is derived from it. The star is where a group is joined. Acetyl(1-pyrenyl) = O=C(Cc1ccc2ccc3cccc4ccc1c2c34)*; Acetyl(2-naphthyl) = O=C(Cc1ccc2ccccc2c1)*

{"COMPOUND": "CC(C)C[C@H](NC(=O)CNC(=O)[C@H](CC(C)C)NC(=O)[C@@H]1CCCN1C(=O)CNC(=O)[C@H](Cc1ccccc1)NC(=O)[C@H](Cc1ccccc1)NC(=O)Cc1ccc2ccccc2c1)C(=O)N[C@@H](CCCNC(=N)N)C(=O)N[C@@H](CO)C(=O)N[C@@H](CCCCN)C(=O)O [3a] ({Acetyl(2-naphthyl)}-FFGPLGLRSK-OH; N-terminus assumed)", "remaining at 72 h, 500 μM / %": 41}
{"COMPOUND": "CC(C)C[C@H](NC(=O)[C@H](CO)NC(=O)[C@H](CC(C)C)NC(=O)[C@@H]1CCCN1C(=O)Cc1ccc2ccc3cccc4ccc1c2c34)C(=O)N[C@@H](CCCNC(=N)N)C(=O)N[C@@H](CO)C(=O)N[C@@H](CCCCN)C(=O)O [4c] ({Acetyl(1-pyrenyl)}-PLSLRSK-OH; N-terminus assumed)", "remaining at 72 h, 500 μM / %": 18}

// provenance: paper PMC3920740
